Attribution: ChEMBL document CHEMBL1129329

- Test system: Mus musculus
- testMethodNotes: Effective dose to block ATPA-induced muscle rigidity in mice at a dose of 30 mg/kg administered intraperitoneally
- testSettings: ip

{"columns": ["compound", "comparator", "ED50 (mg/kg)"],
 "data": [
  ["O=C(O)[C@@H]1C[C@H]2C[C@@H](CSc3nn[nH]n3)CC[C@H]2CN1", "=", 8.1],
  ["O=C(O)[C@@H]1C[C@H]2C[C@@H](CCCc3nnn[nH]3)CC[C@H]2CN1", ">", 100],
  ["O=C(O)[C@@H]1C[C@H]2C[C@@H](CCc3nn[nH]n3)CC[C@H]2CN1 (racemic) [TEZAMPANEL ANHYDROUS]", "=", 3.6],
  ["O=C(O)[C@@H]1C[C@H]2C[C@@H](OCc3nn[nH]n3)CC[C@H]2CN1", "=", 30.6],
  ["O=C(O)CC[C@H]1CC[C@H]2CN[C@H](C(=O)O)C[C@H]2C1", ">", 100],
  ["O=C(O)[C@@H]1C[C@H]2C[C@H](CCc3cc(O)no3)CC[C@H]2CN1", "=", 8.8]
]}

---

pIC50 values, listed per item
- targetDesc: Glutamate receptor ionotropic, kainate
- testMethodNotes: Antagonism at Ionotropic glutamate receptor kainate by inhibition of depolarizations induced by 10 uM kainic acid in rat cortical slice preparation.
- Type: functional
pIC50: −log10 of the molar value.

{"columns": ["compound", "targetDesc", "pIC50"],
 "data": [
  ["CCOC(=O)[C@@H]1C[C@H]2C[C@@H](CCC(=O)NS(=O)(=O)c3ccccc3)CC[C@H]2CN1C(=O)OC", "Glutamate receptor ionotropic, kainate", "< 4.00"],
  ["O=C(O)CC[C@H]1CC[C@H]2CN[C@H](C(=O)O)C[C@H]2C1", "Glutamate receptor ionotropic, kainate", "< 4.00"],
  ["O=C(CC[C@H]1CC[C@H]2CN[C@H](C(=O)O)C[C@H]2C1)Nc1nn[nH]n1", "Glutamate receptor ionotropic, kainate", 4.15],
  ["O=C(O)[C@@H]1C[C@H]2C[C@H](CCP(=O)(O)O)CC[C@H]2CN1", "Glutamate receptor ionotropic, kainate", "< 4.00"],
  ["O=C(O)[C@@H]1C[C@H]2C[C@@H](CS(=O)(=O)c3nnc[nH]3)CC[C@H]2CN1 (stereo in doubt; 36)", "Glutamate receptor ionotropic, kainate", 5.00],
  ["CCOC(=O)[C@@H]1C[C@H]2C[C@@H](CCC(=O)NS(C)(=O)=O)CC[C@H]2CN1C(=O)OC", "Glutamate receptor ionotropic, kainate", "< 4.00"],
  ["O=C(O)[C@H]1C[C@@H]2C[C@H](CCc3nnn[nH]3)CC[C@@H]2CN1", "Glutamate receptor ionotropic, kainate", "< 4.00"]
]}

---

- targetDesc: Glutamate receptor ionotropic, AMPA (Rattus norvegicus, UniProt P19490+P19491+P19492+P19493)
- testMethodNotes: Binding affinity against Ionotropic glutamate receptor AMPA using [3H]AMPA 19755 radioligand
- Format: protein-complex assay
pIC50: −log10 of the molar value.
metric: pIC50

{"columns": ["compound", "comparator", "recordedValue"],
 "data": [
  ["O=C(O)[C@@H]1C[C@H]2C[C@H](CSc3nn[nH]n3)CC[C@H]2CN1 (stereo in doubt; (+/-)28)", "=", 5.31],
  ["O=C(O)[C@@H]1C[C@H]2C[C@@H](CNc3nn[nH]n3)CC[C@H]2CN1 (racemic)", "<", 4.00],
  ["O=C(O)[C@@H]1C[C@H]2C[C@@H](CSc3nc[nH]n3)CC[C@H]2CN1", "<", 5.00],
  ["O=C(O)[C@H]1C[C@@H]2C[C@@H](CSc3nn[nH]n3)CC[C@@H]2CN1", "=", 4.75],
  ["O=C(O)[C@@H]1C[C@H]2C[C@@H](CS(=O)(=O)c3nnc[nH]3)CC[C@H]2CN1 (stereo in doubt; 36)", "=", 5.77],
  ["O=C(CC[C@H]1CC[C@H]2CN[C@H](C(=O)O)C[C@H]2C1)Nc1nn[nH]n1", "=", 4.14],
  ["O=C(O)[C@H]1C[C@@H]2C[C@H](CSc3nn[nH]n3)CC[C@@H]2CN1", "=", 4.66]
]}

---

pIC50 values, listed per item
- targetDesc: Glutamate receptor ionotropic, kainate
- testMethodNotes: Compound was tested for Ionotropic glutamate receptor kainate antagonistic activity by measuring its ability to inhibit depolarizations induced by 10 uM kainic acid in rat cortical slice preparation.
- Assay type: functional
pIC50: −log10 of the molar value.
metric: pIC50

{"columns": ["compound", "targetDesc", "metric", "recordedValue"],
 "data": [
  ["O=C(O)[C@@H]1C[C@H]2C[C@H](CSc3nn[nH]n3)CC[C@H]2CN1 (stereo in doubt; (-)28)", "Glutamate receptor ionotropic, kainate", "pIC50", "< 4.00"],
  ["O=C(O)[C@@H]1C[C@H]2C[C@@H](CSc3nc[nH]n3)CC[C@H]2CN1", "Glutamate receptor ionotropic, kainate", "pIC50", "< 4.00"],
  ["O=C(O)[C@H]1C[C@@H]2C[C@@H](CSc3nn[nH]n3)CC[C@@H]2CN1", "Glutamate receptor ionotropic, kainate", "pIC50", 4.54],
  ["O=C(O)[C@H]1C[C@@H]2C[C@H](CSc3nn[nH]n3)CC[C@@H]2CN1", "Glutamate receptor ionotropic, kainate", "pIC50", "< 4.50"],
  ["O=C(O)[C@@H]1C[C@H]2C[C@@H](CSc3nn[nH]n3)CC[C@H]2CN1", "Glutamate receptor ionotropic, kainate", "pIC50", "< 4.50"]
]}

---

- targetDesc: Glutamate receptor ionotropic, AMPA (Rattus norvegicus, UniProt P19490+P19491+P19492+P19493)
- testMethodNotes: Antagonism at AMPA receptor by inhibition of depolarizations induced by 40 uM AMPA in rat cortical slice preparation.
- Assay type: functional
pIC50: −log10 of the molar value.
metric: pIC50

{"columns": ["compound", "comparator", "recordedValue"],
 "data": [
  ["O=C(O)[C@@H]1C[C@H]2C[C@@H](CS(=O)(=O)c3nnc[nH]3)CC[C@H]2CN1 (stereo in doubt; 36)", "=", 5.67],
  ["O=C(O)[C@H]1C[C@@H]2C[C@H](CCc3nnn[nH]3)CC[C@@H]2CN1", "<", 4.00],
  ["O=C(O)[C@@H]1C[C@H]2C[C@H](CCc3nnn[nH]3)CC[C@H]2CN1 (stereo in doubt; (+)49)", "=", 4.66],
  ["O=C(O)[C@@H]1C[C@H]2C[C@H](CCP(=O)(O)O)CC[C@H]2CN1", "<", 4.00],
  ["O=C(O)[C@@H]1C[C@H]2C[C@@H](CNc3nn[nH]n3)CC[C@H]2CN1 (racemic)", "<", 4.00],
  ["O=C(O)[C@@H]1C[C@H]2C[C@H](CCS(=O)(=O)O)CC[C@H]2CN1", "<", 4.00],
  ["O=C(O)[C@@H]1C[C@H]2C[C@@H](CCS(=O)(=O)O)CC[C@H]2CN1", "=", 4.50]
]}

---

- targetDesc: Glutamate NMDA receptor
- testMethodNotes: Compound was tested for NMDA receptor antagonistic activity by measuring its ability to inhibit depolarizations induced by 40 uM NMDA in rat cortical slice preparation.
- Format: functional
metric: IC50

{"columns": ["molecule", "metric", "recordedValue"],
 "data": [
  ["O=C(O)[C@@H]1C[C@H]2C[C@@H](CSc3nc[nH]n3)CC[C@H]2CN1", "IC50", "> 100 µM"],
  ["O=C(O)[C@@H]1C[C@H]2C[C@H](CSc3nn[nH]n3)CC[C@H]2CN1 (stereo in doubt; (-)28)", "IC50", "62.2 µM"],
  ["O=C(O)[C@@H]1C[C@H]2C[C@@H](CSc3nn[nH]n3)CC[C@H]2CN1", "IC50", "22.9 µM"],
  ["O=C(O)[C@H]1C[C@@H]2C[C@@H](CSc3nn[nH]n3)CC[C@@H]2CN1", "IC50", "> 100 µM"],
  ["O=C(O)[C@@H]1C[C@H]2C[C@H](CSc3nn[nH]n3)CC[C@H]2CN1 (stereo in doubt; (+/-)28)", "IC50", "> 100 µM"],
  ["O=C(O)[C@@H]1C[C@H]2C[C@@H](CSc3nn[nH]n3)CC[C@H]2CN1 (racemic)", "IC50", "> 100 µM"],
  ["O=C(O)[C@H]1C[C@@H]2C[C@H](CSc3nn[nH]n3)CC[C@@H]2CN1", "IC50", "> 100 µM"]
]}

---

- targetDesc: Glutamate receptor ionotropic, AMPA (Rattus norvegicus, UniProt P19490+P19491+P19492+P19493)
- testMethodNotes: Antagonism at AMPA receptor by inhibition of depolarizations induced by 40 uM AMPA in rat cortical slice preparation.
- Assay type: functional
IC50 values, listed per item

{"columns": ["molecule", "IC50"],
 "data": [
  ["O=C(CC[C@H]1CC[C@H]2CN[C@H](C(=O)O)C[C@H]2C1)Nc1nn[nH]n1", "19 µM"],
  ["O=C(O)CC[C@@H]1CC[C@H]2CN[C@H](C(=O)O)C[C@H]2C1", "> 100 µM"],
  ["CCOC(=O)[C@@H]1C[C@H]2C[C@@H](CCC(=O)NS(C)(=O)=O)CC[C@H]2CN1C(=O)OC", "> 100 µM"],
  ["CCOC(=O)[C@@H]1C[C@H]2C[C@@H](CCC(=O)NS(=O)(=O)c3ccccc3)CC[C@H]2CN1C(=O)OC", "> 100 µM"],
  ["CCOC(=O)[C@@H]1C[C@H]2C[C@@H](CCP(=O)(OCC)OCC)CC[C@H]2CN1C(=O)OC", "> 100 µM"],
  ["O=C(O)[C@@H]1C[C@H]2C[C@@H](CCc3nn[nH]n3)CC[C@H]2CN1 [TEZAMPANEL ANHYDROUS]", "1.8 µM"]
]}
